- System: Ramos cells with BTK WT
- assay-summary: Phosphor-BTK(Y223) assay, suspended cells
- Assay type: cell-based
- stated-conditions: Homo sapiens, Ramos, phosphorylated BTK Y223, Ramos cells with BTK WT
Item-by-item account of IC50

In the examples that follow, each entry is paired with its recorded IC50.
COc1ccc(F)cc1C(=O)NCc1ccc(-c2nc(C(C)C(F)(F)F)c(-c3ccn(C)n3)c3[nH]nc(N)c23)cc1 (single isomer, unassigned) [Example 6-1]	≤ 5 nM
COc1ccc(F)cc1C(=O)NCc1ccc(-c2ncc(-c3ncc(C)cn3)c3[nH]nc(N)c23)cc1	≤ 5 nM
COc1ccc(F)cc1C(=O)NCc1ccc(-c2ncc(-c3ccc4cn[nH]c4n3)c3[nH]nc(N)c23)cc1	5 to 10 nM

// switching to the query compound
Query string: So what's the measured IC50 for this one? `COc1ccc(F)cc1C(=O)NCc1ccc(-c2nc(Cl)cc3[nH]nc(N)c23)cc1`
Result string: > 50 nM

* * *

- study-system: TEC (Homo sapiens)
- Construct: purchased Carna 08-182
- Sequence (P42680 1-631): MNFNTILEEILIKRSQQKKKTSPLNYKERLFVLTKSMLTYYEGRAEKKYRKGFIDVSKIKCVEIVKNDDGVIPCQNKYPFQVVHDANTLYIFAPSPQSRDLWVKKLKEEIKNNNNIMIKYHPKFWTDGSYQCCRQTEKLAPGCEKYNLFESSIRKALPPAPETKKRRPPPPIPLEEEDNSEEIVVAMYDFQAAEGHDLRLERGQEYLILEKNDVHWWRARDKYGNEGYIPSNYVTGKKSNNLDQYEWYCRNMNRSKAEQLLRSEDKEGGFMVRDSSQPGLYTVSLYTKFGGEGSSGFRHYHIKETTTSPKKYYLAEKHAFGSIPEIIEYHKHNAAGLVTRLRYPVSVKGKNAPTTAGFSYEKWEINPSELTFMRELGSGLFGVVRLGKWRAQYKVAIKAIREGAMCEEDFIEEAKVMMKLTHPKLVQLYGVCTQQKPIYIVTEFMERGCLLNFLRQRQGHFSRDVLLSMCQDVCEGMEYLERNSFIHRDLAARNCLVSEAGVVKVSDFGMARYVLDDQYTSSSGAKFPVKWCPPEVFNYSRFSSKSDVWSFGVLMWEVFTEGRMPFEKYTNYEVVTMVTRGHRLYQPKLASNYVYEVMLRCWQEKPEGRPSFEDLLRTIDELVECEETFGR
- assay-summary: Kinase activity inhibition assay (HTRF TK Kit), selectivity
- Type: biochemical
pIC50: −log10 of the molar value.
Item-by-item account of pIC50

In the examples that follow, each entry is paired with its recorded pIC50.
COc1ccc(F)cc1C(=O)NCc1ccc(-c2ncc(-c3ccc(N4CCOCC4)cn3)c3[nH]nc(N)c23)cc1 [Example 76]	8.30 to 9.00
COc1ccc(F)cc1C(=O)NCc1ccc(-c2nc(C(C)C(F)(F)F)c(-c3ccn(C)n3)c3[nH]nc(N)c23)cc1 (single isomer, unassigned) [Example 6-2]	7.30 to 8.30
COc1ccc(F)cc1C(=O)NCc1ccc(-c2ncc(-c3ncccn3)c3[nH]nc(N)c23)cc1 [Example 17]	7.30 to 8.30

Query string: Please state recorded pIC50 (tested on TEC (Homo sapiens)) of COc1ccc(F)cc1C(=O)NCc1ccc(-c2ncc(-c3ncc(F)cn3)c3[nH]nc(N)c23)cc1 [Example 36]
Result string: 6.30 to 7.30

Query string: Please state recorded pIC50 (tested on TEC (Homo sapiens)) of COc1ccc(F)cc1C(=O)NCc1ccc(-c2nc([C@H]3CC[C@H](CO)CC3)cc3[nH]nc(N)c23)cc1 [Example 117]
Result string: 6.30 to 7.30

Query string: Please state recorded pIC50 (tested on TEC (Homo sapiens)) of COc1ccc(F)cc1C(=O)NCc1ccc(-c2ncc(-c3ccc(N4CCN(C)C[C@@H]4C)cn3)c3[nH]nc(N)c23)cc1 [Example 74]
Result string: < 6.30

Query string: Please state recorded pIC50 (tested on TEC (Homo sapiens)) of CCN1CCc2nc(-c3cnc(-c4ccc(CNC(=O)c5cc(F)ccc5OC)cc4)c4c(N)n[nH]c34)sc2C1 [Example 101]
Result string: 7.30 to 8.30

Query string: Please state recorded pIC50 (tested on TEC (Homo sapiens)) of COc1ccc(F)cc1C(=O)NCc1ccc(-c2ncc(-c3ccn(CC(=O)N(C)C)n3)c3[nH]nc(N)c23)cc1 [Example 25]
Result string: 6.30 to 7.30

Query string: Please state recorded pIC50 (tested on TEC (Homo sapiens)) of COc1ccc(F)cc1C(=O)NCc1ccc(-c2ncc(-c3ccc(CN4CCCCC4)cn3)c3[nH]nc(N)c23)cc1 [Example 66]
Result string: 7.30 to 8.30

Query string: Please state recorded pIC50 (tested on TEC (Homo sapiens)) of COc1ccc(F)cc1C(=O)NCc1ccc(-c2ncc(-c3cc4ncccn4n3)c3[nH]nc(N)c23)cc1 [Example 44]
Result string: 7.30 to 8.30

Query string: Please state recorded pIC50 (tested on TEC (Homo sapiens)) of COc1ccc(F)cc1C(=O)NCc1ccc(-c2ncc(-c3cnn4cccnc34)c3[nH]nc(N)c23)cc1 [Example 70]
Result string: 7.30 to 8.30
